Source listed as patent US20250215104A1.

Listing of entries alongside the reported koff.
- study_system: T1, cynomolgus suPAR (cynomolgus, UniProt Q9GK78 23-303, limits assumed)
- T1 construct: Target antigen of the off-rate screen; also called cynomolgus uPAR; cynoPLAUR-His
- T1 sequence (Q9GK78 23-303 limits assumed): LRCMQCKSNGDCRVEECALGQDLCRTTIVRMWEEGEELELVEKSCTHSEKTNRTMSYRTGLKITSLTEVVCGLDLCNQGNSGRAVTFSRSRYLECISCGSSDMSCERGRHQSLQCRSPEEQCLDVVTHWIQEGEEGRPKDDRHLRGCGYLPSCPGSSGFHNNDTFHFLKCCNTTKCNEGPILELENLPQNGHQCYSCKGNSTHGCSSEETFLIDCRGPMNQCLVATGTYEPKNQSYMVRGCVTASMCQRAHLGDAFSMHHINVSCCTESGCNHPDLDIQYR
- measurement_description: BLI (Octet) off-rate screen of scFv clones
Give just the numeric value; s⁻¹ need not be written.

• suPAR_DB03_B04 (scFv, V domains shown, screened as scFv) VH: QVQLVQSGAEVKKPGASVKVSCKASGYTFTGYYMHWVRQAPGQGLEWIGWITPDSGGTVYAQKFQGRVTMTRDTSTSTVYMELSSLRSEDTAVYYCARGYDVDWFVYWGQGTLVTVSS VL: DIQMTQSPSSLSASVGDRVTITCSASSSISYMYWYQQKPGKAPKLLIYRTSNLASGVPSRFSGSGSGTDFTLTISSLQPEDFATYYCQQYHSYPPTFGGGTKVEIK = 4.52e-07
• suPAR_DB02_H10 (scFv, V domains shown, screened as scFv) VH: QVQLVQSGAEVKKPGASVKVSCKASGYTFTSYYMHWVRQAPGQGLEWMGWIDHSNGNTIYDQKFQGRVTMTRDTSTSTVYMELSSLRSEDTAVYYCARGYDVDWFVYWGQGTLVTVSS VL: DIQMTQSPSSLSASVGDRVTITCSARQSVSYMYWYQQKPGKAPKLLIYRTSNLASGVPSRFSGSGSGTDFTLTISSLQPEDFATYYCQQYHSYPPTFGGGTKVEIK = 0.000189

Let us examine a further case.
Query block: Name the recorded koff of the binder listed here: suPAR_DB03_C03 (scFv, V domains shown, screened as scFv) VH: QVQLVQSGAEVKKPGASVKVSCKASGYTFTGYYMHWVRQAPGQGLEWMGWIDHENGSTSYDQKFQGRVTMTRDTSTSTVYMELSSLRSEDTAVYYCASGYDVDWFVYWGQGTLVTVSS VL: DIQMTQSPSSLSASVGDRVTITCSARSSVSYMYWYQQKPGKAPKLLIYGASNLQSGVPSRFSGSGSGTDFTLTISSLQPEDFATYYCQQYHSYPPTFGGGTKVEIK
Result block: 0.00108
